Reported Ki values follow for various molecules
# target: human D3 receptor (Homo sapiens, UniProt P35462)
# Construct: expressed in transfected cells; host or cells: Chinese hamster ovary (CHO) cells, membranes
# Sequence (P35462 whole entry): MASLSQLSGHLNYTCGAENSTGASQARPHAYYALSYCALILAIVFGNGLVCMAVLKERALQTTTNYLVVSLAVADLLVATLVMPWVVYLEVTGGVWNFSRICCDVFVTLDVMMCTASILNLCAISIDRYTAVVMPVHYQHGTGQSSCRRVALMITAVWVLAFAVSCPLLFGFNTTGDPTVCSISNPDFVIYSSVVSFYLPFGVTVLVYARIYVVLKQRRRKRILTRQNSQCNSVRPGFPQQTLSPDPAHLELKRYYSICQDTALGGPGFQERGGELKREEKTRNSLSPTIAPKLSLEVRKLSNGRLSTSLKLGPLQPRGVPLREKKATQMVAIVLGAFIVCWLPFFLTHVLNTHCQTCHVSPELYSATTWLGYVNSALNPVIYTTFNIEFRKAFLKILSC
# experiment: radioligand binding with [^3H]spiperone, D3
# stated_conditions: [^3H]spiperone, CHO membranes, mean of 2 to 4 experiments

Check out these entries, answers already filled in.
1) COc1ccccc1N1CCN(CCCCOc2cc3ccccn3n2)CC1 [Example E2] | < 30 nM
2) Clc1cccc(N2CCN(CCCCOc3ccn4ncc(Br)c4c3)CC2)c1Cl | < 30 nM
3) Clc1ccccc1N1CCN(CCCCOc2ccn3nccc3c2)CC1 | < 30 nM
4) COc1ccccc1N1CCN(CCCCOc2ccn3ncc(Br)c3c2)CC1 | < 30 nM
5) O=Cc1cnn2cccc(OCCCCN3CCN(c4cccc(Cl)c4Cl)CC3)c12 | < 30 nM
6) Clc1cccc(N2CCN(CCCCOc3cccc4ccnn34)CC2)c1Cl | < 30 nM

Any idea what Ki came out for COc1ccccc1N1CCN(CCCCOc2nn3ccccc3c2C=O)CC1 on human D3 receptor (Homo sapiens, UniProt P35462)?
< 30 nM

Would you mind doing COc1ccccc1N1CCN(CCCCOc2ccn3nnnc3c2)CC1 as well?
< 30 nM

Would you mind doing O=Cc1cnn2c(OCCCCN3CCN(c4ccccc4Cl)CC3)cccc12 as well?
30 to 300 nM

Would you mind doing Clc1cccc(N2CCN(CCCCOc3cccn4nccc34)CC2)c1Cl as well?
< 30 nM

Would you mind doing Clc1ccc(N2CCN(CCCCOc3ccn4nccc4c3)CC2)cc1 as well?
30 to 300 nM

Would you mind doing COC(=O)c1cnn2ccc(OCCCCN3CCN(c4ccccc4OC)CC3)cc12 as well?
< 30 nM

Would you mind doing O=Cc1cnn2ccc(OCCCCN3CCN(c4ccc(Cl)cc4)CC3)cc12 as well?
30 to 300 nM

Would you mind doing COc1ccccc1N1CCN(CCCCOc2ccn3ncc(CO)c3c2)CC1 as well?
< 30 nM

Would you mind doing Clc1cccc(N2CCN(CCCCOc3ccn4ncc(Cl)c4c3)CC2)c1Cl as well?
< 30 nM

Would you mind doing ON=Cc1cnn2ccc(OCCCCN3CCN(c4cccc(Cl)c4Cl)CC3)cc12 [Example E33] as well?
< 30 nM

Would you mind doing O=Cc1c(OCCCCN2CCN(c3ccccc3Cl)CC2)nn2ccccc12 as well?
< 30 nM

Would you mind doing ON=Cc1cnn2ccc(OCCCCN3CCN(c4ccccc4Cl)CC3)cc12 [Example E32] as well?
< 30 nM

Would you mind doing O=Cc1cnn2ccc(OCCCCN3CCN(c4cccc([N+](=O)[O-])c4)CC3)cc12 as well?
30 to 300 nM

---

# target: human D4.4 receptor (Homo sapiens)
# Construct: expressed in transfected cells; host or cells: Chinese hamster ovary (CHO) cells, membranes
# experiment: radioligand binding with [^3H]spiperone, D4.4
# stated_conditions: ether alkylene linker compounds
Reported pKi values follow for various compounds
Here pKi is given on a logarithmic scale as minus log10 of the concentration in mol/L.

1) COc1ccccc1N1CCN(CCCCOc2ccn3ncc(Cl)c3c2)CC1 | 8.49
2) Clc1cccc(N2CCN(CCCCOc3cc4ccccn4n3)CC2)c1Cl [Example E1] | 7.48

Any idea what pKi came out for COc1ccccc1N1CCN(CCCCOc2ccn3ncc(Br)c3c2)CC1 on human D4.4 receptor (Homo sapiens)?
8.49

Would you mind doing COc1ccccc1N1CCN(CCCCOc2cc3ccccn3n2)CC1 [Example E2] as well?
7.77

---

# target: human D2long receptor (Homo sapiens)
# Construct: expressed in transfected cells; host or cells: Chinese hamster ovary (CHO) cells, membranes
# Sequence (P14416 whole entry): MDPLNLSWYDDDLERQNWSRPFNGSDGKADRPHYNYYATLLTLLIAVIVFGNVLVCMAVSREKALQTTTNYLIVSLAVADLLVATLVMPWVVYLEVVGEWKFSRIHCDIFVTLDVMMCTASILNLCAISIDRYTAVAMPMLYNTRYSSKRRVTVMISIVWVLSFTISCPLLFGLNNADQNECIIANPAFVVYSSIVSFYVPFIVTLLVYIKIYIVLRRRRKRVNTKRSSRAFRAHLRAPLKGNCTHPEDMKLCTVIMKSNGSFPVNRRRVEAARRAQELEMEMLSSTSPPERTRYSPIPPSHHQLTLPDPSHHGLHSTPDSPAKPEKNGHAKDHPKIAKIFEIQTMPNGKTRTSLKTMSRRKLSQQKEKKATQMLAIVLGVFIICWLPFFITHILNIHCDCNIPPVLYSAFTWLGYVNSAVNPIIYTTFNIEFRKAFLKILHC
# experiment: radioligand binding with [^3H]spiperone, D2long
# stated_conditions: [^3H]spiperone, CHO membranes, mean of 2 to 4 experiments; read-out: Ki D2lo
result_type: Ki

Check out these entries, answers already filled in.
1) O=Cc1cnn2ccc(OCCCCN3CCN(c4ccc(O)cc4)CC3)cc12 | 30 to 300 nM
2) COc1ccc(N2CCN(CCCCOc3ccn4nccc4c3)CC2)cc1 | > 3000 nM
3) COc1ccccc1N1CCN(CCCCOc2ccn3nnnc3c2)CC1 | < 30 nM
4) COc1ccccc1N1CCN(CCCCOc2ccn3ncc(Br)c3c2)CC1 | < 30 nM
5) COc1ccccc1N1CCN(CCCCOc2ccn3ncc(Cl)c3c2)CC1 | < 30 nM
6) Oc1ccc(N2CCN(CCCCOc3ccn4nccc4c3)CC2)cc1 | 30 to 300 nM
7) Clc1cccc(N2CCN(CCCOCc3ccn4nccc4c3)CC2)c1Cl | < 30 nM
8) Clc1ccc(N2CCN(CCCCOc3ccn4nccc4c3)CC2)cc1 | 30 to 300 nM

Please give the measured Ki for this compound: ON=Cc1cnn2ccc(OCCCCN3CCN(c4cccc(Cl)c4Cl)CC3)cc12 [Example E33]
< 30 nM

---

result_type: melting point (°C)
Number only, in °C; omit the unit.

Check out these entries, answers already filled in.
1) O=Cc1c(OCCCCN2CCN(c3ccccc3Cl)CC2)nn2ccccc12 | 104
2) COc1ccccc1N1CCN(CCCCOc2cccn3nccc23)CC1 | 74
3) Clc1cccc(N2CCN(CCCCOc3ccn4nccc4c3)CC2)c1Cl | 105

Please give the measured melting point for this compound: O=Cc1c(OCCCCN2CCN(c3cccc(Cl)c3Cl)CC2)nn2ccccc12
100

Would you mind doing Clc1ccccc1N1CCN(CCCCOc2ccn3nccc3c2)CC1 as well?
163

Would you mind doing Clc1cccc(N2CCN(CCCCOc3cccn4nccc34)CC2)c1Cl as well?
91

Would you mind doing O=Cc1cnn2cc(OCCCCN3CCN(c4ccccc4Cl)CC3)ccc12 as well?
71

Would you mind doing COc1ccccc1N1CCN(CCCCOc2ccn3nnnc3c2)CC1 as well?
124

Would you mind doing Oc1ccc(N2CCN(CCCCOc3ccn4nccc4c3)CC2)cc1 as well?
124

Would you mind doing Nc1cccc(N2CCN(CCCCOc3ccn4nccc4c3)CC2)c1 as well?
86

Would you mind doing COC(=O)c1cnn2ccc(OCCCCN3CCN(c4cccc(Cl)c4Cl)CC3)cc12 as well?
73

Would you mind doing Clc1cccc(N2CCN(CCCCOc3cccc4ccnn34)CC2)c1Cl as well?
74

---

# target: human D4.4 receptor (Homo sapiens, UniProt P21917)
# Construct: expressed in transfected cells; host or cells: Chinese hamster ovary (CHO) cells, membranes
# Sequence (P21917 whole entry): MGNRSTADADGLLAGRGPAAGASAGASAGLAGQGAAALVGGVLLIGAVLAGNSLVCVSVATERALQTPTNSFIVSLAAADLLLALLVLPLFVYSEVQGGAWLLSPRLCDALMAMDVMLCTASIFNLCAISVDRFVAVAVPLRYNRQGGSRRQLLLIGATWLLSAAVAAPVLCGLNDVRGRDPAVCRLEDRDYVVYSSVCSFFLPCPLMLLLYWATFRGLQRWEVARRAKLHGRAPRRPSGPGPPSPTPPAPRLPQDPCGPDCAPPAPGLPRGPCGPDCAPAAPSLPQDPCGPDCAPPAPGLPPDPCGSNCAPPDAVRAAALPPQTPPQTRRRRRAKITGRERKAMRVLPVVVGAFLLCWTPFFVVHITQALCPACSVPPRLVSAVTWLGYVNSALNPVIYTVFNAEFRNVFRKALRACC
# experiment: radioligand binding with [^3H]spiperone, D4.4
# stated_conditions: [^3H]spiperone, CHO membranes, mean of 2 to 4 experiments
pKi: −log10 of the molar value.
Reported pKi values follow for various molecules

1. O=Cc1cnn2ccc(OCCCCN3CCN(c4ccc(O)cc4)CC3)cc12 [Example E26] | 6.52 to 7.52
2. N#Cc1cnn2ccc(OCCCCN3CCN(c4cccc(Cl)c4Cl)CC3)cc12 [Example E36] | > 7.52
3. COc1ccccc1N1CCN(CCCCOc2ccn3ncc(Br)c3c2)CC1 [Example E43] | > 7.52
4. Clc1ccccc1N1CCN(CCCCOc2ccn3nnnc3c2)CC1 [Example E98] | > 7.52
5. Clc1cccc(N2CCN(CCCCOc3ccn4ncc(Cl)c4c3)CC2)c1Cl [Example E45] | 6.52 to 7.52

Please give the measured pKi for this molecule: Clc1cccc(N2CCN(CCCCOc3ccn4ncc(I)c4c3)CC2)c1Cl [Example E48]
6.52 to 7.52

Would you mind doing Clc1cccc(N2CCN(CCCCOc3ccc4ccnn4c3)CC2)c1Cl [Example E51] as well?
> 7.52

Would you mind doing Clc1cccc(N2CCN(CCCCOc3cc4ccccn4n3)CC2)c1Cl [Example E1] as well?
6.52 to 7.52

Would you mind doing COc1ccccc1N1CCN(CCCCOc2cccc3ccnn23)CC1 [Example E58] as well?
> 7.52

Would you mind doing Clc1ccccc1N1CCN(CCCCOc2cccc3ccnn23)CC1 [Example E59] as well?
> 7.52

Would you mind doing O=Cc1cnn2ccc(OCCCCN3CCN(c4ccc(Cl)cc4)CC3)cc12 [Example E25] as well?
6.52 to 7.52

Would you mind doing Clc1ccccc1N1CCN(CCCCOc2ccn3ncc(Cl)c3c2)CC1 [Example E47] as well?
6.52 to 7.52

Would you mind doing COc1ccccc1N1CCN(CCCCOc2cc3ccccn3n2)CC1 [Example E2] as well?
> 7.52

Would you mind doing Clc1cccc(N2CCN(CCCCOc3ccn4nnnc4c3)CC2)c1Cl [Example E63] as well?
> 7.52

Would you mind doing COc1ccc(N2CCN(CCCCOc3ccn4ncc(C=O)c4c3)CC2)cc1 [Example E24] as well?
5.52 to 6.52

---

# target: human D3 receptor (Homo sapiens, UniProt P35462)
# Construct: expressed in transfected cells; host or cells: Chinese hamster ovary (CHO) cells, membranes
# experiment: radioligand binding with [^3H]spiperone, D3
# stated_conditions: [^3H]spiperone, CHO membranes, mean of 2 to 4 experiments
pKi: −log10 of the molar value.
result_type: pKi

1. Oc1ccc(N2CCN(CCCCOc3ccn4nccc4c3)CC2)cc1 [Example E20] | 6.52 to 7.52
2. CC(=O)Nc1cccc(N2CCN(CCCCOc3ccn4ncc(C=O)c4c3)CC2)c1 [Example E70] | 5.52 to 6.52
3. COc1ccccc1N1CCN(CCCCOc2ccn3ncc(CN)c3c2)CC1 [Example E78] | > 7.52
4. O=Cc1cnn2ccc(OCCCCN3CCN(c4cccc(Cl)c4Cl)CC3)cc12 [Example E21] | > 7.52

Please give the measured pKi for this molecule: COc1ccccc1N1CCN(CCCCOc2cccn3ncc(C=O)c23)CC1 [Example E11]
6.52 to 7.52

Would you mind doing Clc1cccc(N2CCN(CCCCOc3ccn4ncc(I)c4c3)CC2)c1Cl [Example E48] as well?
> 7.52
